These entries and their values trace back to PubChem BioAssay.

measurement_description: viability loss in pontine glioma line – cell-based, SU-DIPG-XXV, MIPE5.0, CellTiter-Glo, qHTS, dose response (AID 1347065);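 also: cells exposed to compound for 48 hours before ATP readout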
cond: CellTiter-Glo ATP luminescence
Inconclusive results are not listed. Active and inactive are the calls of the source. The limit is not given here; nearly all actives have AC50 up to about 26 µM.
Just give me one of these, please: yes for active, no for inactive

CS(=O)(=O)Oc1ccc2c(NC(N)=O)c(C(=O)c3ccc(Cl)cc3Cl)oc2c1
no

Query: Please state the recorded outcome for this compound: COc1cc2c(cc1OC)CN(CCc1ccc(-n3nnc(-c4cc(OC)c(OC)cc4NC(=O)c4cc(=O)c5ccccc5o4)n3)cc1)CC2
Response: no

Query: What is the recorded call for this compound in the test? O=[N+]([O-])c1cn2c(n1)OC[C@@H](OCc1ccc(OC(F)(F)F)cc1)C2
Response: no

Query: // outcome(item) with item = COc1cc(C(=O)O)ccc1NC(=O)[C@@H]1N[C@@H](CC(C)(C)C)[C@](C#N)(c2ccc(Cl)cc2F)[C@H]1c1cccc(Cl)c1F
Response: yes

Query: For CCOC(CN1C(=O)[C@](CC(=O)Nc2ccc(C)cc2)(NC(=O)Nc2ccc(C)cc2)c2ccccc21)OCC , what call appears in the results of this test?
Response: yes

Query: Which result was noted for this compound in the test: CCC(=O)N1CCN(c2ccc(-n3c(=O)ccc4cnc5ccc(-c6cnc7ccccc7c6)cc5c43)cc2C(F)(F)F)CC1
Response: yes

Query: // outcome(item) with item = COc1ccc(S(=O)(=O)N2CCc3cccc(-c4ccncc4)c32)cc1
Response: yes

Query: GET /call?item= NC(=O)/C(=C/n1cnc(-c2cc(C(F)(F)F)cc(C(F)(F)F)c2)n1)c1cncnc1 returns the recorded outcome of this test.
Response: yes

Query: Hey, what did the test say about CC(C)c1ccc(Cn2ccc3c4c(N)nc(NC5CC5)nc4ccc32)cc1 ?
Response: yes

* * *

measurement_description: JHH-DIPG-1 glioma cell viability, MIPE5.0 library, CellTiter-Glo luminescence, qHTS (AID 1347067);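 also: cells exposed to compound for 48 hours before readout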
cond: JHH-DIPG-1 glioma viability, CellTiter-Glo ATP luminescence
Inconclusive results are not listed. Active and inactive are the calls of the source. The limit is not given here; nearly all actives have AC50 up to about 26 µM.
Output constraint: value belongs to active, inactive

C=CC(=O)Nc1cc(N2CCN(CC)CC2)ccc1Nc1cc(N(C)C(=O)Nc2c(Cl)c(OC)cc(OC)c2Cl)ncn1
active
COC1CCC(N2C(=O)CNc3ncc(-c4ccc(C(C)(C)O)nc4)nc32)CC1 (centres undefined)
active
Cn1c(=O)c(F)c(Nc2ccc(I)cc2F)c2c(=O)n(C[C@@H](O)CO)cnc21
active
COc1ccc2[nH]c(C(=O)N3CCC(CC(C)(C)O)CC3)cc2c1
inactive
CC(=O)Nc1nc(C)c(-c2ccc(Cl)c(S(=O)(=O)NCCO)c2)s1
active
Nc1nc(Nc2ccc3c(c2)CC[C@@H](N2CCCC2)CC3)nn1-c1cc2c(nn1)-c1ccccc1CCC2
active

Query: So what was the verdict on CCCCCNC(=O)N1CCC(CN(Cc2ccc(Cl)cc2)Cc2ccc([N+](=O)[O-])s2)C1 (centres undefined) in this test?
Response: active

Query: I'd appreciate the recorded outcome for Cc1ccc(S(=O)(=O)Nc2cc(-c3ccc(C#N)s3)ccc2C)cc1 from this test.
Response: active

Query: Status in this test for CNC(=O)c1ccc(N2C(=S)N(c3cnc(C#N)c(C(F)(F)F)c3)C(=O)C23CCC3)cc1F ?
Response: inactive
